Experiment: molar heat capacity at constant pressure
Settings: 294.15 K; 101.33 kPa; Liquid; DSC
Numbers after ± are expanded uncertainties.
observed property: molar heat capacity at constant pressure

Solved entries:
>>> obs_value("CCCC[n+]1ccn(C2CCCC2)c1.O=S(=O)([N-]S(=O)(=O)C(F)(F)F)C(F)(F)F")
"649.39 ± 25 J/K/mol"
>>> obs_value("CCCCn1cc[n+](C(CC)CC)c1.O=S(=O)([N-]S(=O)(=O)C(F)(F)F)C(F)(F)F")
"692.9 ± 27 J/K/mol"
>>> obs_value("CCCCC[n+]1ccn(CCCC)c1.O=S(=O)([N-]S(=O)(=O)C(F)(F)F)C(F)(F)F")
"684.63 ± 27 J/K/mol"

Any idea what molar heat capacity at constant pressure was measured for `CCCCn1cc[n+](CCC(C)C)c1.O=S(=O)([N-]S(=O)(=O)C(F)(F)F)C(F)(F)F` ?
682.92 ± 26 J/K/mol

The origin of these recorded values is the NIST ThermoML archive (doi:10.1016/j.fluid.2017.03.021).
